Tested on: FT3469 (normal neural stem cell line)
assay_comment: surviving fraction (nuclei count normalised to DMSO); higher = more cells surviving (less toxic);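 note: nuclei counted by high-content imaging of Hoechst-stained cells in laminin-coated 384-well plates, relative to 0.1% DMSO vehicle wells, with staurosporine as cell-death control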
study_conditions: 12.34567901 nM; exposure time: 72 h
Counter-ions that a name gives are not always drawn.
// values below are reported surviving fraction
Lab note: record the figure alone, no unit after it.

Solved cases (5 shown):
| compound | target | measured_number |
| --- | --- | --- |
| COC(=O)Nc1nc2cc(C(=O)c3cccs3)ccc2[nH]1 [Nocodazole] | FT3469 | 0.573 |
| CC(C)C[C@H](NC(=O)[C@H](Cc1ccccc1)C[C@@H](O)[C@H](Cc1ccccc1)NC(=O)OC(C)(C)C)C(=O)N[C@@H](Cc1ccccc1)C(N)=O [L-685,458] | FT3469 | 0.858 |
| Cc1cc(C)c(CN2CCc3c(Cl)cc(-c4c(C)noc4C)c(Cl)c3C2=O)c(=O)[nH]1 | FT3469 | 0.961 |
| CC(C)C[C@H](NC(=O)[C@H](Cc1ccccc1)NC(=O)c1cnccn1)B(O)O [Bortezomib] | FT3469 | 0.193 |
| COc1cc2nc(N3CCN(C(=O)c4ccco4)CC3)nc(N)c2cc1OC [Prazosin hydrochloride] | FT3469 | 1.14 |

Shift focus to the following entry.
// query Param readout= surviving fraction; system= FT3469; entry= CCN(CC)CCCC(C)Nc1c2ccc(Cl)cc2nc2ccc(OC)cc12 (stereo unspecified) [Quinacrine dihydrochloride hydrate] ; returns value.
// result 1.01

###

System: E34 (patient-derived glioblastoma stem cells of proneural subtype)
assay_comment: surviving fraction (nuclei count normalised to DMSO); higher = more cells surviving (less toxic)
study_conditions: 3000 nM; exposure time: 72 h
Where a name gives a salt, the structure may show the parent alone.
Label rule, in plain words: surviving fraction of 0.9 and up is t, under 0.9 is f.

| molecule | target | classification |
| --- | --- | --- |
| O=C(Nc1ccc([N+](=O)[O-])cc1Cl)c1cc(Cl)ccc1O [Niclosamide] | E34 | f |

// query Decide: surviving fraction of CCN1CCN(C(=O)Cc2ccc(Nc3ncc(F)c(Nc4ccc(C(=O)Nc5ccccc5Cl)cc4)n3)cc2)CC1 >= 0.9?
// result f

// query Hi team, for CC(C)C[C@H](NC(=O)CNC(=O)c1cc(Cl)ccc1Cl)B(O)O , is the recorded surviving fraction at or above 0.9?
// result f

// query Test whether the molecule CC[C@H]1CN2CCc3cc(OC)c(OC)cc3[C@@H]2C[C@@H]1C[C@H]1NCCc2cc(OC)c(OC)cc21 [Emetine dihydrochloride hydrate] records surviving fraction of 0.9 or higher.
// result f

// query Determine whether measured surviving fraction meets or exceeds 0.9 for Nc1nc(Cl)nc2c1ncn2[C@@H]1O[C@H](CO)[C@@H](O)[C@@H]1F
// result f

// query Tell me whether surviving fraction is at least 0.9 here: CC(C)N1CCN(c2ccc(OCC3COC(Cn4cncn4)(c4ccc(Cl)cc4Cl)O3)cc2)CC1 (stereo not given)
// result t

// query Is reported surviving fraction greater than or equal to 0.9 here: CN1CCC(NC(=O)c2cc(-c3c(O)cc(O)cc3Oc3ccc([N+](=O)[O-])cc3)on2)CC1
// result f

// query Kindly determine if surviving fraction recorded for COC(=O)C1=C(C)NC(C)=C(C(=O)OCC(C)C)C1c1ccccc1[N+](=O)[O-] (stereo not given) is above or exactly 0.9.
// result t

// query Please tell me: is the molecule CCOC(=O)OC(C)OC(=O)[C@@H]1N2C(=O)[C@@H](NC(=O)[C@H](N)c3ccccc3)[C@H]2SC1(C)C (stereo not given in full) [Bacampicillin hydrochloride] at or over 0.9 in terms of surviving fraction?
// result t

// query Does the molecule COc1ccc(C(=O)CC(=O)c2ccc(C(C)(C)C)cc2)cc1 have recorded surviving fraction that is 0.9 or more?
// result f

// query Confirm if surviving fraction reported for the molecule CN(C)C(=O)Oc1ccc[n+](C)c1 [Pyridostigmine iodide] is 0.9 or above.
// result t

// query Tell me whether surviving fraction is at least 0.9 here: CC(=O)O[C@@]12CO[C@@H]1C[C@H](O)[C@@]1(C)C(=O)[C@H](O)C3=C(C)[C@@H](OC(=O)[C@H](O)[C@@H](NC(=O)OC(C)(C)C)c4ccccc4)C[C@@](O)([C@@H](OC(=O)c4ccccc4)[C@H]21)C3(C)C
// result f

// query Can N=C(NCCCCCCNC(=N)NC(=N)Nc1ccc(Cl)cc1)NC(=N)Nc1ccc(Cl)cc1 be said to have surviving fraction at or above 0.9?
// result f

// query Quick check, surviving fraction >= 0.9? CNCCCC12CCC(c3ccccc31)c1ccccc12 [Maprotiline hydrochloride]
// result t
